Biological target: DYRK1A (human) (UniProt Q13627)
Parameter measured: IC50 (nM)
Answers are plain numbers, in nM.

// IC50 value for N=C1NC(=O)/C(=C/c2c[nH]c(=O)c(-c3ccc4cc[nH]c4c3)c2)S1 : 19

----------
Please go through the items and note down their kinase still bound, per cent of control.
Molecular target: STK38L (human) (UniProt Q9Y2H1)
Sequence (Q9Y2H1 whole entry, looked up): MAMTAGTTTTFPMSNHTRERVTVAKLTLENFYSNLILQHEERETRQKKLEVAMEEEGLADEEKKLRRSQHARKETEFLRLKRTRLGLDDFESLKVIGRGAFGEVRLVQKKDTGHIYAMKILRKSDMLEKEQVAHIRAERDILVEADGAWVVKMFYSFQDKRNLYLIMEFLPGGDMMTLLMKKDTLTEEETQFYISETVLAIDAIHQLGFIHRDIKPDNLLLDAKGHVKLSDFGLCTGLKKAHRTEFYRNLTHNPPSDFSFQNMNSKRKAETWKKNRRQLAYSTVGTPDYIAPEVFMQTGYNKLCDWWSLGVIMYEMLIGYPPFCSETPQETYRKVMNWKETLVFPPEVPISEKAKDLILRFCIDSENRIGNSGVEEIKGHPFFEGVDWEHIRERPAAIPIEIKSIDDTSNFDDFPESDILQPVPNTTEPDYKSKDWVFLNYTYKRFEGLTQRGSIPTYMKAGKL
Assay: KINOMEscan competition binding
Details: compound 10.0 µM
Answers are plain numbers, in %.

smiles_entry=COc1cc(N2CCN(C)CC2)ccc1Nc1ncc2c(n1)Nc1ccccc1NC2=O system_tested="STK38L (human) (UniProt Q9Y2H1)" parameter_measured="kinase still bound, per cent of control" units_of_measure=% val=100
smiles_entry=O=C1NC(=S)S/C1=C\c1ccc(-c2cncc3ccccc23)o1 system_tested="STK38L (human) (UniProt Q9Y2H1)" parameter_measured="kinase still bound, per cent of control" units_of_measure=% val=29
smiles_entry=CN1C(=O)c2ccccc2N(C)c2nc(Nc3ccc(N4CCC(O)CC4)cc3)ncc21 system_tested="STK38L (human) (UniProt Q9Y2H1)" parameter_measured="kinase still bound, per cent of control" units_of_measure=% val=82

Hi there! I need kinase still bound, per cent of control for each item below, if you can.
1. CN1C(=O)c2ccccc2N(C)c2nc(NS(=O)(=O)c3ccc(N)cc3)ncc21
2. COc1cc(N2CCN(C)CC2)ccc1Nc1ncc2c(n1)N(C)c1sccc1C(=O)N2C

100
88

----------
Biological target: UniProtKB Q9UEE5
Sequence (Q9UEE5 whole entry, looked up): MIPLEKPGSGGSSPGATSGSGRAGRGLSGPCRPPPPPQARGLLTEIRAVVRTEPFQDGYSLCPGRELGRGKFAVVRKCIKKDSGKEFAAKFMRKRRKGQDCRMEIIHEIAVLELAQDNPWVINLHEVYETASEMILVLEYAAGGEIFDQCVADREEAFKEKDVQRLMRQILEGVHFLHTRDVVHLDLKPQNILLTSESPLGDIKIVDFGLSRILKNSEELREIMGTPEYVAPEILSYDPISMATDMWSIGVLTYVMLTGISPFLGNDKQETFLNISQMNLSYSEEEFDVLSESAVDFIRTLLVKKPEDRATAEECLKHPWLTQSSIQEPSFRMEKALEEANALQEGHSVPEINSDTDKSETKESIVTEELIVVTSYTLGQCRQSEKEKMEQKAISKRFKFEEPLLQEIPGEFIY
Experiment: KINOMEscan competition binding
Conditions: compound 10.0 µM
Criterion: kinase still bound, per cent of control strictly under 0.6%. Met: Met. Not met: Not met.

# count of solved cases: 3
compound=COc1cc(N2CCN(C)CC2)ccc1Nc1ncc2c(n1)N(C)c1ccccc1N(C)C2=O system_tested="UniProtKB Q9UEE5" cat="Not met"
compound=N=C1NC(=O)/C(=C/c2ccc(-c3ccc(C(N)=O)cc3O)o2)S1 system_tested="UniProtKB Q9UEE5" cat=Met
compound=O=C1NC(=O)/C(=C/c2c[nH]c(=O)c(-c3ccc(N4CCNCC4)nc3)c2)S1 system_tested="UniProtKB Q9UEE5" cat=Met

Problem: For the compound CCN1CCN(Cc2cc(NC(=O)c3cccc4cc(-c5ccc(/C=C6\SC(=O)NC6=O)o5)ccc34)cc(C(F)(F)F)c2)CC1 , is kinase still bound, per cent of control under 0.6%?
Not met

Problem: For the compound N=C1NC(=O)/C(=C/c2ccc(-c3ccc(C(=O)Nc4ccc(N5CCNCC5)cc4)cc3O)o2)S1 , is kinase still bound, per cent of control under 0.6%?
Met

Problem: For the compound N=C1NC(=O)/C(=C/c2ccc(-c3ccc(F)cc3)o2)S1 , is kinase still bound, per cent of control under 0.6%?
Met

Problem: For the compound N=C1NC(=O)/C(=C/c2ccc(-c3cncc4ccccc34)o2)S1 , is kinase still bound, per cent of control under 0.6%?
Met

Problem: For the compound CN1C(=O)c2ccccc2N(C)c2nc(NS(=O)(=O)c3ccc(N)cc3)ncc21 , is kinase still bound, per cent of control under 0.6%?
Not met

Problem: For the compound O=C1NC(=O)/C(=C/c2c[nH]c(=O)c(-c3ccc(C(=O)Nc4ccc(N5CCNCC5)cc4)cc3)c2)S1 , is kinase still bound, per cent of control under 0.6%?
Not met

Problem: For the compound O=C1NC(=O)/C(=C/c2ccc(-c3ccc(C(=O)Nc4ccc(N5CCNCC5)cc4)cc3)o2)S1 , is kinase still bound, per cent of control under 0.6%?
Not met

----------
Target: LRRK2 (human), Q5S007 [G2019S]
Sequence (Q5S007 whole entry G2019S, looked up): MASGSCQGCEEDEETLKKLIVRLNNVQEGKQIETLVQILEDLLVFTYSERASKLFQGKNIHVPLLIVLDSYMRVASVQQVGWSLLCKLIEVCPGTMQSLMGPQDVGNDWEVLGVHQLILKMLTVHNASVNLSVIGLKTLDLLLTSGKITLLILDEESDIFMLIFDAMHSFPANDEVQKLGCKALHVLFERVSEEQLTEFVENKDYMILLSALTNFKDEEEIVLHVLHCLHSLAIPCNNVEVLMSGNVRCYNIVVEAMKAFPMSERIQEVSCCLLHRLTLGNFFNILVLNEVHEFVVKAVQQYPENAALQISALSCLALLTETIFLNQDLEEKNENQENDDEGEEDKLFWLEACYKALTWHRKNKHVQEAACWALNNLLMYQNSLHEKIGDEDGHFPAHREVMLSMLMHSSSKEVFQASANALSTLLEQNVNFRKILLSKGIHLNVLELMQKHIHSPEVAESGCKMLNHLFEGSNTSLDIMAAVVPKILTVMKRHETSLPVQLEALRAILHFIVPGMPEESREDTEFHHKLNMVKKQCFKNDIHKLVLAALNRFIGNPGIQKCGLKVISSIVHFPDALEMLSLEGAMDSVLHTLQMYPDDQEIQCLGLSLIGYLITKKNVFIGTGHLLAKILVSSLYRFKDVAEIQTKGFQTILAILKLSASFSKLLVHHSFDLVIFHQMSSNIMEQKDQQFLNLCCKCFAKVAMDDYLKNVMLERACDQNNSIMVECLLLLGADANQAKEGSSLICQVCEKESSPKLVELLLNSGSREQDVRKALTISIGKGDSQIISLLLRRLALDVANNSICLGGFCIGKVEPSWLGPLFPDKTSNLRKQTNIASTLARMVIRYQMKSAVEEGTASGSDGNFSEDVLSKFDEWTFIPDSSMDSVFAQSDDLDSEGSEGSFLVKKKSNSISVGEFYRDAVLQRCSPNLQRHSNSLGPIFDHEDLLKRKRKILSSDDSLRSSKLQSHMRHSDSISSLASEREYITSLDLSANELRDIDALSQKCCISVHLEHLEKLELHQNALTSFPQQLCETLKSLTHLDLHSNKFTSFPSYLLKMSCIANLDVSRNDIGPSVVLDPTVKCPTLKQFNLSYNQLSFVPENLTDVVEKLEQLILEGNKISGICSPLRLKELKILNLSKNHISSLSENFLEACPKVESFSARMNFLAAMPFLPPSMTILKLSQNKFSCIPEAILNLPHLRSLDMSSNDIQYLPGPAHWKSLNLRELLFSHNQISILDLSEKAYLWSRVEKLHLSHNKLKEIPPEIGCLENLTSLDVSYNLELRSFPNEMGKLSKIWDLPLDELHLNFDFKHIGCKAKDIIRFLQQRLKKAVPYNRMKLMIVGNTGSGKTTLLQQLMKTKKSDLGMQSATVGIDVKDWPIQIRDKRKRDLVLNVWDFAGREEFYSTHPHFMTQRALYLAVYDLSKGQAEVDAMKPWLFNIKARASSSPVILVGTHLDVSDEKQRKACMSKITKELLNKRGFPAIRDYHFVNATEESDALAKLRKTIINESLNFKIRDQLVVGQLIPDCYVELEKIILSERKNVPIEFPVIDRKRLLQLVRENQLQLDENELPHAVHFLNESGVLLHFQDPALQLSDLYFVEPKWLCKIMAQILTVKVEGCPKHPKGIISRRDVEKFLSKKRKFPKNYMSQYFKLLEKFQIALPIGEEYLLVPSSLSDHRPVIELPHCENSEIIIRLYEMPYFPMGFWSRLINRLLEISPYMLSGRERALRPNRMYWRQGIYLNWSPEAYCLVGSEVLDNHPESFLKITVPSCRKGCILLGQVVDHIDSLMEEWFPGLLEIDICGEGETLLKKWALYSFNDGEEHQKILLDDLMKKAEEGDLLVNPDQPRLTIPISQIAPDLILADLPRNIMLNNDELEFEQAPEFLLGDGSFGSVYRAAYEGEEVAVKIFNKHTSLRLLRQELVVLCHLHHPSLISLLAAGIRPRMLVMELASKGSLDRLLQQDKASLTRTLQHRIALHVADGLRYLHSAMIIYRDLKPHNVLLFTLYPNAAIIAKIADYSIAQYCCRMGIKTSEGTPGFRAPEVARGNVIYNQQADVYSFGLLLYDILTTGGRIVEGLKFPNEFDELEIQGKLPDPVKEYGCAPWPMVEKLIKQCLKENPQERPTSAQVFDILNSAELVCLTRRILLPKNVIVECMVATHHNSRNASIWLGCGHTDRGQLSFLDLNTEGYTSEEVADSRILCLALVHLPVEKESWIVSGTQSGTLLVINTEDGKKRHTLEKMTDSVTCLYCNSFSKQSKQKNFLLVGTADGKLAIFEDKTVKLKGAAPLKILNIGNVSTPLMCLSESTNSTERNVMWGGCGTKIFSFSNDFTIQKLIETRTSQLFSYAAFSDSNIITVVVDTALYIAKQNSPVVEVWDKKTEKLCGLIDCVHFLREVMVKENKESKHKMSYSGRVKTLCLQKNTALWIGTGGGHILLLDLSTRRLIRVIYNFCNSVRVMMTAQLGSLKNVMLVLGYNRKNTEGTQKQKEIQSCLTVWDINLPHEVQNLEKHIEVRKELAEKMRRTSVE
Experiment: SelectScreen, TR FRET
Parameter measured: IC50 (nM)
Give bare numbers, in nM.

// IC50 value for CCOc1cc(N2CCC(O)CC2)ccc1Nc1ncc2c(n1)N(C)c1ccccc1C(=O)N2C : 2.6

----------
Molecular target: DYRK1B (human)
Parameter measured: IC50

// IC50 value for N=C1NC(=O)/C(=C/c2c[nH]c(=O)c(-c3ccc4cc[nH]c4c3)c2)S1 : 62 nM

----------
Please go through the items and note down their kinase still bound, per cent of control.
Molecular target: PLK1 (human) (UniProt P53350)
Sequence (P53350 whole entry, looked up): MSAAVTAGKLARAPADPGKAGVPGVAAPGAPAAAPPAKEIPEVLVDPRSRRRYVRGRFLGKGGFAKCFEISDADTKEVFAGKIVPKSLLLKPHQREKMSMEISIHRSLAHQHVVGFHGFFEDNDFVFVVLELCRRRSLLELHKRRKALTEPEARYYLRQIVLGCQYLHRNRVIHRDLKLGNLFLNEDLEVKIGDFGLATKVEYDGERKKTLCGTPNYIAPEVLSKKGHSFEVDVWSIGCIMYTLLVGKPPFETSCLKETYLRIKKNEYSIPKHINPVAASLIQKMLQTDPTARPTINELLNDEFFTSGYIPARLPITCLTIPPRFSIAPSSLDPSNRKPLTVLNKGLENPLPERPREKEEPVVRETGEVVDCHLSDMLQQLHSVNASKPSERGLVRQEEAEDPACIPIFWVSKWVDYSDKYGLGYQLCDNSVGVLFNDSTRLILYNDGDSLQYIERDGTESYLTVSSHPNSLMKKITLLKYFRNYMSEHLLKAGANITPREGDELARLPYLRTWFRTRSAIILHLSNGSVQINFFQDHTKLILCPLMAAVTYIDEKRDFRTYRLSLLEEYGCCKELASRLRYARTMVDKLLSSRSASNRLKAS
Assay: KINOMEscan competition binding
Settings: compound 10.0 µM
Numbers only, in %.

Hi there! I need kinase still bound, per cent of control for each item below, if you can.
1. COc1cc(N2CCC(C(N)=O)CC2)ccc1Nc1ncc2c(n1)N(C1CCCC1)[C@@H]1CCC[C@@H]1C(=O)N2C
2. COc1cc(N2CCN(C)CC2)ccc1Nc1ncc2c(n1)N(C1CCCC1)C(C)CC(=O)N2 (stereo not given)
3. COc1cc(N2CCC(O)CC2)ccc1Nc1ncc2c(n1)N(C1CCCC1)CCC(=O)N2C
4. CCN(CC)C1CCN(c2ccc(Nc3ncc4c(n3)N3CCCC3C=CN4C)c(OC(C)C)c2)CC1 (stereo not given)
5. COc1cc(N2CCN(C)CC2)ccc1Nc1ncc2c(n1)N(C)c1ccccc1N(C)C2=O
6. CCN1C(=O)CCN(C2CCCC2)c2nc(Nc3ccc(N4CCC(O)CC4)cc3OC(C)C)ncc21
7. CN1C(=O)c2ccccc2N(C)c2nc(Nc3ccc(N4CCC(O)CC4)cn3)ncc21
8. COc1cc(N2CCN(C)CC2)ccc1Nc1ncc2c(n1)Nc1ccccc1NC2=O

19
2.1
3
4.4
100
4.1
24
99

Hi there! I need kinase still bound, per cent of control for each item below, if you can.
1. CN1CCN(c2ccc(C(=O)Nc3ncc4c(n3)N(C)c3ccccc3C(=O)N4C)cc2)CC1
2. O=C1NC(=O)/C(=C/c2c[nH]c(=O)c(-c3ccc(N4CCNCC4)nc3)c2)S1
3. COc1cc(C(=O)NC2CCN(C)CC2)ccc1Nc1ncc2c(n1)N(C1CCCC1)[C@@H]1CCC[C@@H]1C(=O)N2C
4. COc1cc(C(=O)NC2CCN(C)CC2)ccc1Nc1ncc2c(n1)N(C1CCC(O)CC1)CCC(=O)N2C (stereo not given)
5. CSC1=NC(=O)/C(=C/c2c[nH]c(=O)c(-c3ccc(NS(C)(=O)=O)cc3)c2)S1
6. COc1cc(N2CCC(N3CCN(C)CC3)CC2)ccc1Nc1ncc2c(n1)N(C1CCCC1)C(C)CC(=O)N2 (stereo not given)
7. CN1C(=O)[C@H]2CCC[C@H]2N(C2CCCC2)c2nc(Nc3ccc(C(N)=O)cc3)ncc21
8. COc1cc(N2CCN(C)CC2)ccc1Nc1ncc2c(n1)N(C1CCCC1)C(C)CC(=O)N2C (stereo not given)

1. 100
2. 46
3. 15
4. 2
5. 17
6. 0
7. 0.65
8. 9

Hi there! I need kinase still bound, per cent of control for each item below, if you can.
1. COc1cc(N2CCN(C)CC2)ccc1Nc1ncc2c(n1)N(C(C)C)c1ccccc1C(=O)N2C
2. CC(C)Oc1cc(N2CCC(O)CC2)ccc1Nc1ncc2c(n1)N(C1CCCC1)CCC(=O)N2C
3. COc1cc(N2CCN(C)CC2)ccc1Nc1ncc2c(n1)N(C)c1ccccc1C(=O)N2C

25
14
9.8

Hi there! I need kinase still bound, per cent of control for each item below, if you can.
1. CC(C)Oc1cc(C(=O)N2CCC(N3CCN(C)CC3)CC2)ccc1Nc1ncc2c(n1)N(C1CCCC1)[C@@H]1CCC[C@@H]1C(=O)N2C
2. CCOc1cc(N2CCC(O)CC2)ccc1Nc1ncc2c(n1)N(C1CCCC1)CCC(=O)N2C
3. COc1cc(C(=O)NC2CCN(C)CC2)ccc1Nc1ncc2c(n1)N(CCc1ccccc1)CCC(=O)N2C
4. COc1cc(N2CCC(O)CC2)ccc1Nc1ncc2c(n1)N(c1ccccc1)CCC(=O)N2C
5. COc1cc(N2CCC(N3CCN(C)CC3)CC2)ccc1Nc1ncc2c(n1)N(C1CCCC1)C(C)CC(=O)N2C (stereo not given)
6. COc1cc(N2CCN(CCO)CC2)ccc1Nc1ncc2c(n1)N(C1CCCC1)CCC(=O)N2C
7. COc1cc(N2CCC(C)(O)CC2)ccc1Nc1ncc2c(n1)N(C1CCCC1)CCC(=O)N2C
8. COc1cc(C(=O)NC2CCN(C)CC2)ccc1Nc1ncc2c(n1)N(C1CCCC1)CCC(=O)N2C(C)C

[24, 4.3, 1.9, 1.2, 7.2, 0, 0.2, 17]

Hi there! I need kinase still bound, per cent of control for each item below, if you can.
1. COc1cc(C(N)=O)ccc1Nc1ncc2c(n1)N(C1CCCC1)[C@@H]1CCC[C@@H]1C(=O)N2C
2. CCN1C(=O)CCN(C2CCCC2)c2nc(Nc3ccc(N4CCC(O)CC4)cn3)ncc21

16
1.8

Hi there! I need kinase still bound, per cent of control for each item below, if you can.
1. COc1cc(N2CCC(N3CCN(C)CC3)CC2)ccc1Nc1ncc2c(n1)N1CCCC1CC(=O)N2C (stereo not given)
2. COc1cc(C(=O)NC2CCC(O)CC2)ccc1Nc1ncc2c(n1)N(C1CCCC1)[C@@H]1CCC[C@@H]1C(=O)N2C (stereo not given in full)
3. COc1cc(N2CCC(O)CC2)ccc1Nc1ncc2c(n1)N(C)c1ccccc1C(=O)N2C
4. CCN1C(=O)CC(c2ccccc2)N(C2CCCC2)c2nc(Nc3ccc(C(=O)NC4CCN(C)CC4)cc3OC)ncc21 (stereo not given)
5. CCOc1cc(N2CCC(O)CC2)ccc1Nc1ncc2c(n1)N(C1CCCC1)CCC(=O)N2CC
6. O=C1NC(=O)/C(=C/c2c[nH]c(=O)c(-c3ccc(C(=O)Nc4ccc(N5CCNCC5)cc4)cc3)c2)S1

1.8
0
5.5
0.55
1.2
17
